system: Male beagle dogs; assay: canine telemetry protocol, blood pressure reduction efficacy; type: in vivo; settings: pulse pressure, change from baseline; 3 mg/kg oral gavage; 12-18 h
Experimental Readout: ΔPP (mm Hg) 12-18 h
Please state the figure in mm Hg; there is no need to write the unit.

Guide cases for ΔPP (mm Hg) 12-18 h, answers given:
molecule="CCN(/[N+]([O-])=N/O[C@H]1CC[C@@H](C(=O)O)CC1)C(C)(C)C [Example 1]" reported_value=−1
molecule="CN(/[N+]([O-])=N/O[C@H]1CC[C@@H](C(=O)O)CC1)C(C)(C)C [Example 3]" reported_value=−5
molecule="CN(/[N+]([O-])=N/O[C@H]1CC[C@H](C(=O)O)CC1)C(C)(C)C [Example 6]" reported_value=−2
molecule="CCCCN(/[N+]([O-])=N/O[C@H]1CC[C@H](C(=O)O)CC1)C(C)(C)C [Example 8]" reported_value=−12

Consider now this further molecule.
Form field: reported ΔPP (mm Hg) 12-18 h of CCN(/[N+]([O-])=N/O[C@H]1CC[C@H](C(=O)O)CC1)C(C)(C)C [Example 2]
−7

###

test system: Male beagle dogs; assay: canine telemetry protocol, blood pressure reduction efficacy; type: in vivo; settings: systolic blood pressure, change from baseline; 3 mg/kg oral gavage; 1-6 h
// values below are reported ΔSBP (mm Hg) 1-6 h
Please state the figure in mm Hg; there is no need to write the unit.

Guide cases for ΔSBP (mm Hg) 1-6 h, answers given:
compound_structure_string=CCN(/[N+]([O-])=N/O[C@H]1CC[C@@H](C(=O)O)CC1)C(C)(C)C unit_info="mm Hg" reported_value=−9
compound_structure_string=CN(/[N+]([O-])=N/O[C@H]1CC[C@H](C(=O)O)CC1)C(C)(C)C unit_info="mm Hg" reported_value=−18
compound_structure_string=CN(/[N+]([O-])=N/O[C@H]1CC[C@@H](C(=O)O)CC1)C(C)(C)C unit_info="mm Hg" reported_value=−8
compound_structure_string=CCN(/[N+]([O-])=N/O[C@H]1CC[C@H](C(=O)O)CC1)C(C)(C)C unit_info="mm Hg" reported_value=−14

Consider now this further compound.
Form field: reported ΔSBP (mm Hg) 1-6 h of CCCCN(/[N+]([O-])=N/O[C@H]1CC[C@H](C(=O)O)CC1)C(C)(C)C
−14
